Target: T1, FZD6 CRD (Homo sapiens, UniProt O60353)
T1 construct: S20-P146; GPI anchor signal (C); expressed in transfected cells; host or cells: CHO cells, lentiviral pLenti-puro
T1 sequence (O60353 20-146): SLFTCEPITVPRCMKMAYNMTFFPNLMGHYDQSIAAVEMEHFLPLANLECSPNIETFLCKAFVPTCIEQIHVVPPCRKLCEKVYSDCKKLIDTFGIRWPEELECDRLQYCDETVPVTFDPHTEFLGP
Experiment: Immunofluorescence of anti-FZD5 Fab binding to CHO cells overexpressing Frizzled CRD
Design: key: −: no binding; +: very weak binder; ++: weak binder; +++: good binder; ++++: very good binder
result type: Immunofluorescence binding, Frizzled CRD overexpressed on CHO cells: FZD6

Fab-2919: anti-FZD5 Fab with antibody variable region Fv-2919; CDR SEQ ID NOs: 35, 36, 58, 97, 134, 155 (antibody, V domains shown) VH: EVQLVESGGGLVQPGGSLRLSCAASGFNISYSYIHWVRQAPGKGLEWVASIYSSSGSTSYADSVKGRFTISADTSKNTAYLQMNSLRAEDTAVYYCARGAIDYWGQGTLVTVSS VL: DIQMTQSPSSLSASVGDRVTITCRASQSVSSAVAWYQQKPGKAPKLLIYSASSLYSGVPSRFSGSRSGTDFTLTISSLQPEDFATYYCQQWYSSGHVLITFGQGTKVEIK; −
